This collection of values is drawn from the supplement of paper PMC8728848.

- system.tested: Fuc(a1-2)Gal(b1-4)GlcNAc(b1-2)[Fuc(a1-2)Gal(b1-4)GlcNAc(b1-4)]Man(a1-3)[Fuc(a1-2)Gal(b1-4)GlcNAc(b1-2)Man(a1-6)]Man(b1-4)GlcNAc(b1-4)GlcNAc
- assay.info: glycan array binding signal (z-score within array); higher = stronger binding
- condition.context: glycan notation: IUPAC condensed, linker removed
Many of the other results were omitted from the sample, so the strongest signals are more common in it than they were.

>  <binder>
SpnanA (Streptococcus pneumoniae), P62575 (protein) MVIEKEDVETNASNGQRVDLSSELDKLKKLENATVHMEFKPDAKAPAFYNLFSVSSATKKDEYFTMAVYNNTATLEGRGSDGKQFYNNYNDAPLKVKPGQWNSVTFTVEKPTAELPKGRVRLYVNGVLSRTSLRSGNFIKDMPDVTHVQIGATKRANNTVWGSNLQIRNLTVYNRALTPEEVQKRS

>  <glycan array binding signal (z-score)>
-0.131

$$$$
>  <binder>
PGP3 (Chlamydia trachomatis), P0CE18 (protein) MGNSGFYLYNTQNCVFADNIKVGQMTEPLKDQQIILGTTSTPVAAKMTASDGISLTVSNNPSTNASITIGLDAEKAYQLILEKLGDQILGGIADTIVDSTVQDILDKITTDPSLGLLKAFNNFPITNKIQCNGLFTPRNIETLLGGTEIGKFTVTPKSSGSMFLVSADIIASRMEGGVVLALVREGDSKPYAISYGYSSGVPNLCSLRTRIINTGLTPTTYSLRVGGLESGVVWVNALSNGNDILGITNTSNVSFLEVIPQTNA

>  <glycan array binding signal (z-score)>
2.62

$$$$
>  <binder>
Gz-CVNH (Gibberella zeae) (protein) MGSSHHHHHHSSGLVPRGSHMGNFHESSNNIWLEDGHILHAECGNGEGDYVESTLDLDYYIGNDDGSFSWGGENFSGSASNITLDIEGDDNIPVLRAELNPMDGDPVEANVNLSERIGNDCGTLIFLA

>  <glycan array binding signal (z-score)>
-0.106

$$$$
>  <binder>
RBMC2 (Vibrio cholerae) (protein) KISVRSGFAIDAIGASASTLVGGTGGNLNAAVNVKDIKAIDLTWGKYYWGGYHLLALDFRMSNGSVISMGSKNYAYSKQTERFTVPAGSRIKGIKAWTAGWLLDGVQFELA

>  <glycan array binding signal (z-score)>
0.016

$$$$
>  <binder>
Epf (Streptococcus pyogenes) (protein) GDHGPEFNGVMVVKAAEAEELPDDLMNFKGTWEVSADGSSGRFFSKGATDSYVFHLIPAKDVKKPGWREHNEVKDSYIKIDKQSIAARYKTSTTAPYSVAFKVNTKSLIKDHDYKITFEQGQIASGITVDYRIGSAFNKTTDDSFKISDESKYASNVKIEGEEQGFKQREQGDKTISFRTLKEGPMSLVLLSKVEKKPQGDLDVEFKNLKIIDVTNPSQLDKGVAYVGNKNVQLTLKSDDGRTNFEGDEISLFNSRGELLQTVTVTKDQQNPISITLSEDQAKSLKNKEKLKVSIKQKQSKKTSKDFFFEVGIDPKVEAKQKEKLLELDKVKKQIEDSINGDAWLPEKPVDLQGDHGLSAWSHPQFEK

>  <glycan array binding signal (z-score)>
-0.184

$$$$
>  <binder>
rPitB (Streptococcus pneumoniae), A0A0I7U739 (protein) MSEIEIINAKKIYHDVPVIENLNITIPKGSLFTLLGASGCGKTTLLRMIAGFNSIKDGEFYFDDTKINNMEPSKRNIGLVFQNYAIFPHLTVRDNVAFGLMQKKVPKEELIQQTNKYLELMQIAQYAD

>  <glycan array binding signal (z-score)>
0.316

$$$$
>  <binder>
CIH1 (Colletotrichum higginsianum) (protein) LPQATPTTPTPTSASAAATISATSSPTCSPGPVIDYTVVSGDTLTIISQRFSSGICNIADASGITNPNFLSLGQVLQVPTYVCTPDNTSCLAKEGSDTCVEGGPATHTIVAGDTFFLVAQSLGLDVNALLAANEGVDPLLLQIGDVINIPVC

>  <glycan array binding signal (z-score)>
-0.061

$$$$
>  <binder>
Epa6 (Candida glabrata), Q6DTM7_CANGB (protein) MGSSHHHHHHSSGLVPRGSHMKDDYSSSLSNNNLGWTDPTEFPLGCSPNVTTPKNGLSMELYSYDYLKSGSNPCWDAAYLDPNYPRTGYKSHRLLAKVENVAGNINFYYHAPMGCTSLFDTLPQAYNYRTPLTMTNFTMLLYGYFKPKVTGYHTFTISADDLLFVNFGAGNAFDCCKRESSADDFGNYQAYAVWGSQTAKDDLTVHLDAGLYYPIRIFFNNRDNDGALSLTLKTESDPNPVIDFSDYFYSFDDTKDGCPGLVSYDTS

>  <glycan array binding signal (z-score)>
-0.318

$$$$
>  <binder>
PA-IL (Pseudomonas aeruginosa), Q05097 (protein) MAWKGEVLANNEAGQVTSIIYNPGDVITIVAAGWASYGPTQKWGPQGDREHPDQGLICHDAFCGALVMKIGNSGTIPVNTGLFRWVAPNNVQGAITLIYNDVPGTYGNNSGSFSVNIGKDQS

>  <glycan array binding signal (z-score)>
-0.197

$$$$
>  <binder>
AFCNVH (Aspergillus fumigatus) (protein) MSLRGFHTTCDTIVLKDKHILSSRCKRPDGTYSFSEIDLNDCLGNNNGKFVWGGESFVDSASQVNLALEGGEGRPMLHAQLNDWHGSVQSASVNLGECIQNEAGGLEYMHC

>  <glycan array binding signal (z-score)>
-0.277

$$$$
